Tested on: THRa homodimer (NR concentration 90 nM)
Assay: PBM binding z-score (relative to random genomic background probes); higher = stronger binding; sequences stand for … in GC…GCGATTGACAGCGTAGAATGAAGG
ENDPOINT NAME: PBM binding z-score
Lab note: jot the number down without any unit.

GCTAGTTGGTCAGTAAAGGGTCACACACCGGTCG = 0.995
AGTCAAAGTTCACTAGGTAACATAAGATTCAGCT = 0.138

IN: For CCTTACGGGTCACTGACAGGTTAGAGCATTTGGA , write its PBM binding z-score.
OUT: 0.0773

IN: For CTCGAAAGGTCGTGCTCAGGTGAGTTTACCAAAC , write its PBM binding z-score.
OUT: 1.18

IN: For TCGAGTAGGTTACCAATGGGGCAGTCAGCTTTCT , write its PBM binding z-score.
OUT: -1.12

IN: For TGTCAAAGTTCAAAGATAACGTAAGTATCCACAC , write its PBM binding z-score.
OUT: -0.41

IN: For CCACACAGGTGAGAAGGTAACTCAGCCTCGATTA , write its PBM binding z-score.
OUT: 0.324

IN: For CCTTACGGGTCACTCCAGGGTATAGCATCGGAGT , write its PBM binding z-score.
OUT: -0.222

IN: For CCGTACGGGTCACTGACAGGTTATAGCATTTGGA , write its PBM binding z-score.
OUT: -0.108

IN: For ACGTACGGGTCAACGAGGTTATAGCACGCGTATA , write its PBM binding z-score.
OUT: 0.75

IN: For GCTTGTAGATCAAGGTTAAGAGAGACTAAGCTAA , write its PBM binding z-score.
OUT: -0.0888

IN: For CGTCCAAGGTCAGCAGGTCAGTGTAAGCGACGTG , write its PBM binding z-score.
OUT: 2.46

IN: For TTACCAAAGTGAGCTGAGGTCGTTGATCCAACTC , write its PBM binding z-score.
OUT: 1.36

###

# maps each entry to its PBM binding z-score
System: FXR:RXRa (NR concentration 270 nM, RXRa partner concentration 90 nM)
Experiment: PBM binding z-score (relative to random genomic background probes); higher = stronger binding; sequences stand for … in GC…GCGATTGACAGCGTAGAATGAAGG
Lab note: jot the number down without any unit.

IN: For CCTAGCAGGCCAGGGTCACTCCAGCATTTCGCTT , write its PBM binding z-score.
OUT: 1.55

IN: For CCTGCTAGATCAATGGTCAGCTAAAGCAGCTCGC , write its PBM binding z-score.
OUT: -0.932

IN: For GCGATTGGGGCATCAGCAGGTTACCATAACTTAA , write its PBM binding z-score.
OUT: 0.0293

IN: For TGTCAAAGTTCAAAGGTAACATAAGTATCCACAC , write its PBM binding z-score.
OUT: 7.47

IN: For ATCGAAAAGTCGAGGTGAGTATAGAGAAAGGGAA , write its PBM binding z-score.
OUT: 0.304

IN: For AGAACGAGGGCACGCTGAGTTTATAGCAGAGTAG , write its PBM binding z-score.
OUT: 0.87

IN: For CGAACTAGGTCAGAACAGGACAATGAAGGATGAT , write its PBM binding z-score.
OUT: 1.42

IN: For AATACAGGCTCACTAGGCCAGAGTAGGTACGAAT , write its PBM binding z-score.
OUT: -0.561

IN: For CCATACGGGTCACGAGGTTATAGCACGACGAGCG , write its PBM binding z-score.
OUT: 6.99

IN: For CGTCCAAGGTCAAAGGTTAGTGAAGAGATGACGG , write its PBM binding z-score.
OUT: 7.74

IN: For ATATGTAGGTTAGCTGGGTTCATTCAGACTAGGC , write its PBM binding z-score.
OUT: 1.75

IN: For CGTCAAAGTTCAAGATAACGTAACAGAAAGCAGC , write its PBM binding z-score.
OUT: 6.13

IN: For CCAGACAGGTGTAAGGTAACTCAGTCTGGTACGC , write its PBM binding z-score.
OUT: -0.0338
